Value source: patent US12459931B2

In this section we review reported MRT values for a set of compounds.
assay: Pharmacokinetic assay in Balb/c mice (plasma and brain tissue); assay type: in vivo; details: male, Balb/c, mouse, po, Plasma, p.o. 5 mg/kg, read-out: Average residence time MRT

# entrySmiles, MRT, h
data = [
    ("O=C(N[C@H]1CC[C@](F)(CCN2CCN(c3cccc4sccc34)CC2)CC1)c1ccco1", 9.21),
    ("O=C(N[C@H]1CC[C@H](CCN2CCN(c3cccc4sccc34)CC2)CC1)C1(O)CC1", 6.84),
    ("CC(C)(O)C(=O)N[C@H]1CC[C@H](CCN2CCN(c3cccc4sccc34)CC2)CC1", 13.5),
    ("O=C(N[C@H]1CC[C@H](CCN2CCN(c3cccc4sccc34)CC2)CC1)c1ncco1", 11.8),
]
